Data provenance: ChEMBL document CHEMBL1144753

IC50 reference
target: DNA polymerase beta (Rattus norvegicus); test: Inhibition of polymerase activity of DNA polymerase beta

>  <compound smiles>
CC1(C)CC[C@]2(C(=O)O)CC[C@]3(C)C(=CC[C@@H]4[C@@]5(C)CC[C@H](O)C(C)(C)[C@@H]5CC[C@]43C)[C@@H]2C1

>  <assayed system>
DNA polymerase beta (Rattus norvegicus)

>  <IC50>
25 µM

$$$$
>  <compound smiles>
CC[C@H](/C=C/[C@@H](C)[C@H]1CC[C@H]2[C@@H]3CC=C4C[C@@H](O)CC[C@]4(C)[C@H]3CC[C@]12C)C(C)C

>  <assayed system>
DNA polymerase beta (Rattus norvegicus)

>  <IC50>
> 250 µM

$$$$
